target: Calcitonin gene-related peptide type 1 receptor (Homo sapiens, UniProt O60894+Q16602); test: Antagonist activity at CGRP receptor assessed as inhibition of CGRP-stimulated cAMP production by cell based assay in presence of 50% human serum; type: functional
Sequence (Q16602 whole entry, one chain of several): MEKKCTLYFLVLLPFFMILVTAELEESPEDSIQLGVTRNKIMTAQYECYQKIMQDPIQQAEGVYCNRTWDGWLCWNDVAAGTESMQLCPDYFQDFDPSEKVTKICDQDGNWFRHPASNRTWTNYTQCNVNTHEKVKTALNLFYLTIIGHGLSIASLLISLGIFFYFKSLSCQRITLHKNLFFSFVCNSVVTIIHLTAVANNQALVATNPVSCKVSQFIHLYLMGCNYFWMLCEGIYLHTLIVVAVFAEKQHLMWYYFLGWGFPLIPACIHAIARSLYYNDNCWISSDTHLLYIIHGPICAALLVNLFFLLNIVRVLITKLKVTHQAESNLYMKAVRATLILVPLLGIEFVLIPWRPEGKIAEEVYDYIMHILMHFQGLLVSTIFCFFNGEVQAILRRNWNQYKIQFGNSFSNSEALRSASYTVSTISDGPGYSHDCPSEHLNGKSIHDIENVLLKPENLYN
property.label: IC50 (nM)

a: CC(C)(O)c1cnc2n1C[C@H](c1cccc(F)c1F)CC[C@H]2NC(=O)N1CCC2(CC1)OC(=O)Nc1ncccc12
b: CC(C)c1cnc2n1C[C@H](c1cccc(F)c1F)CC[C@H]2NC(=O)N1CCC(n2c(=O)[nH]c3ncccc32)CC1
c: O=C(N[C@@H]1CC[C@@H](c2cccc(F)c2F)Cn2ccnc21)N1CCC(n2c(=O)[nH]c3ncccc32)CC1
Q: Put these in order: smallest IC50 first, largest last. Answer by listing the labels in the requested order.
Result: a, b, c
(a: 1.5 nM, b: 3.2 nM, c: 19 nM)

FYI, the data here is from ChEMBL document CHEMBL1770088.
